These measurements were taken from patent US20230035659A1.

Tested on: TTR
Experiment: TTR editing in primary cyno hepatocytes treated with LNP formulated Spy Cas9 mRNA (SEQ ID NO: 2) and sgRNAs, 12.5 ng mRNA
Type: cell-based, cynomolgus monkey
Conditions: LNP formulated Spy Cas9 mRNA (SEQ ID NO: 2) and cyno matched sgRNA, lysed 72 hours post treatment
Description: Primary liver hepatocytes. Primary human liver hepatocytes (PHH) and primary cynomolgus liver hepatocytes (PCH) (Gibco) were cultured per the manufacturer's protocol (Invitrogen, protocol 11.28.2012). […] Cells were counted and plated on Bio-coat collagen I coated 96-well plates (ThermoFisher, Cat. 877272) at a density of 33,000 cells/well for human or 60,000 cells/well for cyno (or 65,000 cells/well when assaying effects on TTR protein, described further below). […]
Strand notation (5' to 3'): a small letter for the sugar, then the base; units joined by * are phosphorothioate-linked, units joined directly phosphodiester-linked; [ ] holds rarer units or linkages, { } end groups; capitals alone tell only the bases. m = 2'-O-methyl; r = 2'-OH (RNA)
Property: 12.5 ng mRNA, 3.9 nM sgRNA, Avg % Edit

molecule="G000509: TTR Cyno specific sgRNA modified sequence, SEQ ID NO: 121; guide sequence of CR005369 (nucleic acid) guide: mA*mA*mA*rGrUrUrCrUrArGrArUrGrCrCrGrUrCrCrGrGrUrUrUrUrArGrAmGmCmUmAmGmAmAmAmUmAmGmCrArArGrUrUrArArArArUrArArGrGrCrUrArGrUrCrCrGrUrUrArUrCrAmAmCmUmUmGmAmAmAmAmAmGmUmGmGmCmAmCmCmGmAmGmUmCmGmGmUmGmCmU*mU*mU*mU" result=74.47%
